assay system: PREP (Homo sapiens (Human))
Sequence (P48147 whole entry): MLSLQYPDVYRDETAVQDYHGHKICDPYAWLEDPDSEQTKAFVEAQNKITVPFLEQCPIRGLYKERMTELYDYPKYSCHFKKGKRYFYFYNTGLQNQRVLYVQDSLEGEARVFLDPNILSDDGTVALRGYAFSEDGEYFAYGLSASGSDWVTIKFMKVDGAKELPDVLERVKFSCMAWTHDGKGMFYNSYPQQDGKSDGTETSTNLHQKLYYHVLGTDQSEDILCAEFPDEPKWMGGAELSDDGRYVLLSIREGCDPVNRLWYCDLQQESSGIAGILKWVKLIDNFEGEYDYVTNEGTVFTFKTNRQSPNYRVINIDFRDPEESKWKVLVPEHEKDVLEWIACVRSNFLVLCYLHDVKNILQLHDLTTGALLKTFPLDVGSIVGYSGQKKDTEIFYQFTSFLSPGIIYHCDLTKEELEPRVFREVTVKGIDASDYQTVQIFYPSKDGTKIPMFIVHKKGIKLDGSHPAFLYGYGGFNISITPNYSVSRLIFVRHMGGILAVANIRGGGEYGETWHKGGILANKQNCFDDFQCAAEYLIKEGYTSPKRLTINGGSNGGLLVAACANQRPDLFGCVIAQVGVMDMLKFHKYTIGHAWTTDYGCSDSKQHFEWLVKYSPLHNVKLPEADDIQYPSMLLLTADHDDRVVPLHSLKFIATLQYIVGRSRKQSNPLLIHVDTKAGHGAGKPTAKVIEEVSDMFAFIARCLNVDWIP
procedure text: PREP enzyme inhibition, IC50 measurement (N-succinyl-Gly-Pro-AMC release)
Format: biochemical
condition notes: Table 2; mean ± SD (n = 3)

# smiles str, IC50
rows = [
    ("O=C(CNC12CC3CC(C1)CC(OCc1ccc(F)cc1F)(C3)C2)N1Cc2ccccc2C1", "> 10 µM"),
    ("CCCCCCCCOC12CC3CC(CC(NCC(=O)N4Cc5ccccc5C4)(C3)C1)C2", "> 10 µM"),
    ("CC(C)OC12CC3CC(CC(NCC(=O)N4Cc5ccccc5C4)(C3)C1)C2", "> 10 µM"),
    ("O=C(CNC12CC3CC(CC(O)(C3)C1)C2)N1Cc2ccccc2C1", "> 10 µM"),
    ("O=C(CNC12CC3CC(C1)CC(OCc1ccccc1)(C3)C2)N1Cc2ccccc2C1", "> 10 µM"),
    ("CCCCOC12CC3CC(CC(NCC(=O)N4Cc5ccccc5C4)(C3)C1)C2", "> 10 µM"),
]

###

assay system: DPP9 (Homo sapiens (Human), UniProt Q86TI2)
Sequence (Q86TI2 whole entry): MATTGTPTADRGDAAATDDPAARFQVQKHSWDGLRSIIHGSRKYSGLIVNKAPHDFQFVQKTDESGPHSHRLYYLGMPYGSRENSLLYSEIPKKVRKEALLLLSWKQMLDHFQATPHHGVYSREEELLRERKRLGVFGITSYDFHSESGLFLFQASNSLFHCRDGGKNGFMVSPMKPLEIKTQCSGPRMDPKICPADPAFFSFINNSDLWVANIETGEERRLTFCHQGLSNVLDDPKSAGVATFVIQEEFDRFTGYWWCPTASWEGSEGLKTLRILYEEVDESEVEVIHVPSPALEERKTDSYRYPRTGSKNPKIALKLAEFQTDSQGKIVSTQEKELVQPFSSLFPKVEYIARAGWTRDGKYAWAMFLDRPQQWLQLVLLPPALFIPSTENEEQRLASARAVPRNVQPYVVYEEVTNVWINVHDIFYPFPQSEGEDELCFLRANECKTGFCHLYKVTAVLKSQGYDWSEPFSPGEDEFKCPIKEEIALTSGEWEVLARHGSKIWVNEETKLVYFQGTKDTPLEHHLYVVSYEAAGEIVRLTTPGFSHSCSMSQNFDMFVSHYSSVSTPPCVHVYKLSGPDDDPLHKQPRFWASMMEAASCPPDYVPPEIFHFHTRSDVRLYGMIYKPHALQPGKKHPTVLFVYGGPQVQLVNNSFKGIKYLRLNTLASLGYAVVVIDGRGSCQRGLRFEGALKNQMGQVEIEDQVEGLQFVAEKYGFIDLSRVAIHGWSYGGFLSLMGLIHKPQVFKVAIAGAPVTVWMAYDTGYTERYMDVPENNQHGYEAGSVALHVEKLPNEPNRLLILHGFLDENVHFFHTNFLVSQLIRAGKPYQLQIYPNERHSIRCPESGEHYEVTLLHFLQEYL
procedure text: DPP9 enzyme inhibition, IC50 measurement (Ala-Pro-pNA release)
Type: biochemical
condition notes: Table 2; mean ± SD (n = 3); read-out: IC50 DPP9
pIC50: −log10 of the molar value.
endpoint label: pIC50

# smiles str, assay system, numeric value
records = [
    ("O=C(CNC12CC3CC(C1)CC(OCc1ccccc1)(C3)C2)N1Cc2ccccc2C1", "DPP9 (Homo sapiens (Human), UniProt Q86TI2)", 5.92),
    ("O=C(CNC12CC3CC(CC(O)(C3)C1)C2)N1Cc2ccccc2C1", "DPP9 (Homo sapiens (Human), UniProt Q86TI2)", 5.39),
    ("CCCCCCCCOC12CC3CC(CC(NCC(=O)N4Cc5ccccc5C4)(C3)C1)C2", "DPP9 (Homo sapiens (Human), UniProt Q86TI2)", 6.30),
    ("CC(C)OC12CC3CC(CC(NCC(=O)N4Cc5ccccc5C4)(C3)C1)C2", "DPP9 (Homo sapiens (Human), UniProt Q86TI2)", 6.21),
    ("CCCCOC12CC3CC(CC(NCC(=O)N4Cc5ccccc5C4)(C3)C1)C2", "DPP9 (Homo sapiens (Human), UniProt Q86TI2)", 6.31),
    ("O=C(CNC12CC3CC(C1)CC(OCc1ccc(F)cc1F)(C3)C2)N1Cc2ccccc2C1", "DPP9 (Homo sapiens (Human), UniProt Q86TI2)", 6.42),
]

###

Below, each entry is listed with its recorded SI DPP9/8.
assay system: DPP9 (Homo sapiens (Human), UniProt Q86TI2)
procedure text: DPP9 enzyme inhibition, IC50 measurement (Ala-Pro-pNA release)
Assay type: biochemical
condition notes: Table 2; selectivity index, DPP8 IC50 over DPP9 IC50

# molecule, SI DPP9/8
records = [
    ("O=C(CNC12CC3CC(CC(O)(C3)C1)C2)N1Cc2ccccc2C1 [Compound 5p]", 4.3),
    ("CCCCCCCCOC12CC3CC(CC(NCC(=O)N4Cc5ccccc5C4)(C3)C1)C2 [Compound 5u]", 6.8),
    ("O=C(CNC12CC3CC(C1)CC(OCc1ccccc1)(C3)C2)N1Cc2ccccc2C1 [Compound 5q]", 5.8),
    ("CC(C)OC12CC3CC(CC(NCC(=O)N4Cc5ccccc5C4)(C3)C1)C2 [Compound 5t]", 6.5),
    ("O=C(CNC12CC3CC(C1)CC(OCc1ccc(F)cc1F)(C3)C2)N1Cc2ccccc2C1 [Compound 5r]", 4.1),
    ("CCCCOC12CC3CC(CC(NCC(=O)N4Cc5ccccc5C4)(C3)C1)C2 [Compound 5s]", 6.4),
]
